assay-info: Intrinsic clearance in mouse microsomes
Type: ADME, Microsome
applied-conditions: read-out: CLH
reported-metric: microsomal CLint (µL/min/mg)

> print(dat)
                            compound.string  recorded.value
1  Cc1c(-c2ccc(N3CCC(F)(F)C3)cc2)[nH]c2cc(F)cc(F)c2c1=O            6.03

---

target: CYP3A4 (Homo sapiens)
Sequence (P08684 whole entry): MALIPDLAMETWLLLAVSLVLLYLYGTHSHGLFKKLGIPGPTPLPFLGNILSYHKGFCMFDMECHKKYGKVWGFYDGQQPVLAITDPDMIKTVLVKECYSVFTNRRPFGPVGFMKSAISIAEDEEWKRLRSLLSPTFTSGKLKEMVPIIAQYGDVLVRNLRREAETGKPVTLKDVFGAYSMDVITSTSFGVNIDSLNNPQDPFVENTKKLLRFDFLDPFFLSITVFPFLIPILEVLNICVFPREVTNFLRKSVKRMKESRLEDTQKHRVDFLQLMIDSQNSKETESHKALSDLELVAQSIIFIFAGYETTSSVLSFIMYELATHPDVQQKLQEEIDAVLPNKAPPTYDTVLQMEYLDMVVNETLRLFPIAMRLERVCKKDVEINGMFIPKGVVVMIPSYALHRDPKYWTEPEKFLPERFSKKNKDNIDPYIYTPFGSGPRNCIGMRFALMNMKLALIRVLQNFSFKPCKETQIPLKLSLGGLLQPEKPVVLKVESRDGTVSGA
assay-info: Inhibition of human microsomal CYP3A4 expressed in insect cells at 10 uM using BOMCC as substrate measured every minute for 1 hr by fluorescence-based assay
Type: ADME
applied-conditions: probe BOMCC
reported-metric: inhibition at 1 h, 10 µM (%)

> print(dat)
                            compound.string  recorded.value
1  Cc1c(-c2ccc(N3CCC(F)(F)C3)cc2)[nH]c2cc(F)cc(F)c2c1=O               0

---

assay-info: Intrinsic clearance in rat microsomes
Type: ADME, Microsome
applied-conditions: read-out: CLH
reported-metric: microsomal CLint (µL/min/mg)

> print(dat)
                            compound.string  unit.annotation  recorded.value
1  Cc1c(-c2ccc(N3CCC(F)(F)C3)cc2)[nH]c2cc(F)cc(F)c2c1=O        µL/min/mg            11.2

---

target: CYP3A5 (Homo sapiens, UniProt P20815)
Sequence (P20815 whole entry): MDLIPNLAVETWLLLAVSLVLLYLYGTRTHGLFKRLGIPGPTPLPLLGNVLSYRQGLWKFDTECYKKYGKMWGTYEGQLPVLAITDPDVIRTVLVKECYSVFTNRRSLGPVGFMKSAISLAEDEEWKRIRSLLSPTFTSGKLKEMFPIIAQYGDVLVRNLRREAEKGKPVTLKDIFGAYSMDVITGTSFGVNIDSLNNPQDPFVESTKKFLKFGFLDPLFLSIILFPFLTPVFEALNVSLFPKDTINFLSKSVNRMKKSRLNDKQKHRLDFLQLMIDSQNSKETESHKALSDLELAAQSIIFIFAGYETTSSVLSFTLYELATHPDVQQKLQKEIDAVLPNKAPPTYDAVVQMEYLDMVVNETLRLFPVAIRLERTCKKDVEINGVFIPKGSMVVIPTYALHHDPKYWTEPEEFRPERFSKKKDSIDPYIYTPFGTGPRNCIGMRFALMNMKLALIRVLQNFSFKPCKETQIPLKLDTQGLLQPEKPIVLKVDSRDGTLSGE
assay-info: Inhibition of human microsomal CYP3A5 expressed in insect cells at 10 uM using BOMCC as substrate measured every minute for 1 hr by fluorescence-based assay
Assay type: ADME
applied-conditions: probe BOMCC
reported-metric: inhibition at 1 h, 10 µM (%)

> print(dat)
                            compound.string  recorded.value
1  Cc1c(-c2ccc(N3CCC(F)(F)C3)cc2)[nH]c2cc(F)cc(F)c2c1=O               0

---

assay-info: AUC in Wistar rat at 50 mg/kg administered via oral gavage after 24 hrs by LC-MS/MS analysis
Type: ADME, organism-based
Set-up: time < 24 hr, dose 50 mg/kg, route oral
applied-conditions: in vivo
reported-metric: AUC at 24 h (ng·h/mL)

> print(dat)
                            compound.string  unit.annotation  recorded.value
1  CC(=O)Oc1c(C)c(-c2ccc(N3CCC(F)(F)C3)cc2)nc2cc(F)cc(F)c12          ng·h/mL           29600

---

target: Voltage-gated inwardly rectifying potassium channel KCNH2 (Homo sapiens, UniProt Q12809)
Sequence (Q12809 whole entry): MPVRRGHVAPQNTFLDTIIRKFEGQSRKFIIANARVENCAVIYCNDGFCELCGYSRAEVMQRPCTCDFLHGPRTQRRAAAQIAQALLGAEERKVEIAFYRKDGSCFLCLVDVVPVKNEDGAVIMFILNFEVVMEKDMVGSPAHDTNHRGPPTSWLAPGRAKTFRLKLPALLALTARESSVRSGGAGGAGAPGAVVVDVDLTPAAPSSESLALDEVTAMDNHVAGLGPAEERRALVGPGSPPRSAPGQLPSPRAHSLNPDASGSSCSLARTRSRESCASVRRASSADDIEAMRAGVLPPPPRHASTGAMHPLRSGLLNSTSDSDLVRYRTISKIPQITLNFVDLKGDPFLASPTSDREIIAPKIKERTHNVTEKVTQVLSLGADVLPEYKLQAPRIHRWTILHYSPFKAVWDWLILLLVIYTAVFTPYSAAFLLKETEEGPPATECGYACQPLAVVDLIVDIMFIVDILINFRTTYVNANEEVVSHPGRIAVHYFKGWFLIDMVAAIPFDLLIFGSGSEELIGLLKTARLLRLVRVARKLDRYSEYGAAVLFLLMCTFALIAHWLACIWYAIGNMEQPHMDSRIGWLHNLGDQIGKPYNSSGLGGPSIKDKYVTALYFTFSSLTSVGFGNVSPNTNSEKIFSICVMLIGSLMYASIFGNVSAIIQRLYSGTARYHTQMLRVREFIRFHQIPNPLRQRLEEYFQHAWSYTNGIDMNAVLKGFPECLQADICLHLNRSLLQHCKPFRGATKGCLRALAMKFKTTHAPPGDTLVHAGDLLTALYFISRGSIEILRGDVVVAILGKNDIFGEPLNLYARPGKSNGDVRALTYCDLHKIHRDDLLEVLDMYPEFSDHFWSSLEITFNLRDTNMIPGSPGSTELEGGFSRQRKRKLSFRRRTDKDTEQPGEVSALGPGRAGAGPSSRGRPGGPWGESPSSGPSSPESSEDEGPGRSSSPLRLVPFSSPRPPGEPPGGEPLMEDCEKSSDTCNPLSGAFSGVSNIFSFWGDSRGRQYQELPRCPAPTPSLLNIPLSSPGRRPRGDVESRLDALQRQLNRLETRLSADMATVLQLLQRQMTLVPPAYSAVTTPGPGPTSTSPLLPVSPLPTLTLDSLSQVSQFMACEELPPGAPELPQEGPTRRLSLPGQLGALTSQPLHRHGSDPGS
pIC50: −log10 of the molar value.
reported-metric: pIC50

> print(dat)
                            compound.string  recorded.value
1  Cc1c(-c2ccc(N3CCC(F)(F)C3)cc2)[nH]c2cc(F)cc(F)c2c1=O          < 4.60

---

assay-info: Oral bioavailability in Wistar rat at 10 mg/kg administered via gavage after 24 hrs by LC-MS/MS analysis
Format: ADME, organism-based
applied-conditions: in vivo
reported-metric: bioavailability (%)

> print(dat)
                            compound.string  reported.metric  recorded.value
1  CC(=O)Oc1c(C)c(-c2ccc(N3CCC(F)(F)C3)cc2)nc2cc(F)cc(F)c12  bioavailability            63.8

---

Examples of molecules with documented solubility follow.
assay-info: Solubility of compound at pH 1
Format: physicochemical
applied-conditions: buffer
reported-metric: solubility

> print(dat)
                                   molecule  recorded.value
1  Cc1c(-c2ccc(-n3cccc3)cc2)[nH]c2cc(F)cc(F)c2c1=O       5.1 µg/mL
2  Cc1c(-c2ccc(N3CC[C@H](F)C3)cc2)[nH]c2cc(F)cc(F)c2c1=O       < 1 µg/mL
3  Cc1c(-c2ccc(N3CCCC(F)C3)cc2)[nH]c2cc(F)cc(F)c2c1=O (centres undefined)     > 150 µg/mL
4  Cc1c(-c2ccc(N3CCC(F)(F)C3)cc2)[nH]c2cc(F)cc(F)c2c1=O       < 1 µg/mL

---

assay-info: Solubility of compound in Middlebrook 7H9 broth media containing 10% albumin-dextrose-catalase solution
Format: physicochemical
reported-metric: solubility (µg/mL)

> print(dat)
                                   compound  reported.metric  unit.annotation  recorded.value
1  Cc1c(-c2ccc(N3CCCC(F)C3)cc2)[nH]c2cc(F)cc(F)c2c1=O (centres undefined)       solubility            µg/mL              10
2  Cc1c(-c2ccc(N3CC[C@H](F)C3)cc2)[nH]c2cc(F)cc(F)c2c1=O       solubility            µg/mL             2.5
3  Cc1c(-c2ccc(N3CCC(F)(F)C3)cc2)[nH]c2cc(F)cc(F)c2c1=O       solubility            µg/mL              55
4  Cc1c(-c2ccc(-n3cccc3)cc2)[nH]c2cc(F)cc(F)c2c1=O       solubility            µg/mL              61

---

assay-info: Metabolic stability in human liver microsomes assessed as half life for metabolic turnover at 0.1 to 10 uM preincubated for 60 mins in presence of NADPH measured up to 60 mins by mass spectroscopic analysis
Type: ADME, microsome
Examples of molecules with documented half-life at up to 10 µM follow.
reported-metric: half-life at up to 10 µM

> print(dat)
                                    molecule  recorded.value
 1  Cc1c(-c2ccc(N3CCCC(C)C3)cc2)[nH]c2cc(F)cc(F)c2c1=O (stereo unspecified)         7.9 min
 2  Cc1c(-c2ccc(-n3cccc3)cc2)[nH]c2cc(F)cc(F)c2c1=O        10.2 min
 3  Cc1c(-c2ccc(-n3cc(F)c(F)c3)cc2)[nH]c2cc(F)cc(F)c2c1=O        ≥ 60 min
 4  Cc1c(-c2ccc(N3CCCC(F)C3)cc2)[nH]c2cc(F)cc(F)c2c1=O (stereo unspecified)         7.8 min
 5  Cc1c(-c2ccc(N3CCC(C)CC3)cc2)[nH]c2cc(F)cc(F)c2c1=O        < 10 min
 6  Cc1c(-c2ccc(N3CC[C@@H](F)C3)cc2)[nH]c2cc(F)cc(F)c2c1=O        10.2 min
 7  Cc1c(-c2ccc(N3CCC(F)CC3)cc2)[nH]c2cc(F)cc(F)c2c1=O         5.7 min
 8  Cc1c(-c2ccc(N3CCCC(F)(F)C3)cc2)[nH]c2cc(F)cc(F)c2c1=O        17.4 min
 9  Cc1c(-c2ccc(N3CCC(F)(F)C3)cc2)[nH]c2cc(F)cc(F)c2c1=O        72.8 min
10  Cc1c(-c2ccc(N3CCCCC3)cc2)[nH]c2cc(F)cc(F)c2c1=O        7.31 min
11  Cc1c(-c2ccc(N3CCC[C@H](C)C3)cc2)[nH]c2cc(F)cc(F)c2c1=O        8.54 min

---

assay-info: Cmax in Wistar rat at 10 mg/kg administered via oral gavage after 24 hrs by LC-MS/MS analysis
Type: ADME, organism-based
Set-up: dose 10 mg/kg, route oral
applied-conditions: in vivo
reported-metric: Cmax (ng/mL)

> print(dat)
                            compound.string  reported.metric  unit.annotation  recorded.value
1  CC(=O)Oc1c(C)c(-c2ccc(N3CCC(F)(F)C3)cc2)nc2cc(F)cc(F)c12             Cmax            ng/mL            1700

---

assay-info: Oral bioavailability in Wistar rat at 50 mg/kg administered via gavage after 24 hrs by LC-MS/MS analysis
Assay type: ADME, organism-based
applied-conditions: in vivo
reported-metric: bioavailability (%)

> print(dat)
                            compound.string  reported.metric  recorded.value
1  CC(=O)Oc1c(C)c(-c2ccc(N3CCC(F)(F)C3)cc2)nc2cc(F)cc(F)c12  bioavailability            30.7

---

Examples of compounds with documented fraction unbound at 18 h, 1 µM follow.
assay-info: Protein binding in human plasma at 1 uM after 18 hrs by equilibrium dialysis
Type: ADME, cell-free
applied-conditions: read-out: PPB (converted)
reported-metric: fraction unbound at 18 h, 1 µM

> print(dat)
                                    compound                 reported.metric  recorded.value
 1  Cc1c(-c2ccc(N3CCC[C@H](C)C3)cc2)[nH]c2cc(F)cc(F)c2c1=O  fraction unbound at 18 h, 1 µM           0.007
 2  COc1cc2[nH]c(-c3ccc(N4CCCCC4)cc3)c(C)c(=O)c2cc1F  fraction unbound at 18 h, 1 µM           0.012
 3  Cc1c(-c2ccc(N3CCCC(F)C3)cc2)[nH]c2cc(F)cc(F)c2c1=O (configuration not stated)  fraction unbound at 18 h, 1 µM          0.0155
 4  Cc1c(-c2ccc(N3CC[C@@H](F)C3)cc2)[nH]c2cc(F)cc(F)c2c1=O  fraction unbound at 18 h, 1 µM           0.009
 5  Cc1c(-c2ccc(-n3cccc3)cc2)[nH]c2cc(F)cc(F)c2c1=O  fraction unbound at 18 h, 1 µM           0.039
 6  Cc1c(-c2ccc(N3CCC[C@@H]3CO)cc2)[nH]c2cc(F)cc(F)c2c1=O  fraction unbound at 18 h, 1 µM           0.045
 7  Cc1c(-c2ccc(N3CCCCCC3)cc2)[nH]c2cc(F)cc(F)c2c1=O  fraction unbound at 18 h, 1 µM           0.006
 8  Cc1c(-c2ccc(N3CCC[C@H]3CO)cc2)[nH]c2cc(F)cc(F)c2c1=O  fraction unbound at 18 h, 1 µM           0.045
 9  Cc1c(-c2ccc(N3CCC[C@@H](C)C3)cc2)[nH]c2cc(F)cc(F)c2c1=O  fraction unbound at 18 h, 1 µM           0.005
10  COc1ccc2c(=O)c(Cl)c(-c3ccc(N4CCCCC4)cc3)[nH]c2c1  fraction unbound at 18 h, 1 µM           0.012
